Taken from patent US20240238424A1.

# System: 293 mutant EGFR_T790M L858R Cells
# test_protocol: Cellular growth inhibition assay (CTG), 293 mutant EGFR_T790M L858R cells
# Type: cell-based
# experimental_context: 293 mutant EGFR T790M L858R cells, CellTiter-Glo 2.0, day-5
# Experimental: Cells were seeded in Poly-D-lysine-treated 384-well white plates, with 25 μL cell suspension at 250 cells/well for continuous treatments, and 1000 cells/well for washout treatments. Plates were spun at 300×g for 3 minutes, and cells were cultured at 37° C. with 5% CO2 in a humidified tissue culture incubator. […] At day-0 and day-5 of compound treatments, cell viability was quantified with CellTiter-Glo 2.0 (Promega). […] Luminescence readings were measured with an EnVision Plate Reader. […]
GI50 overview
value_type: GI50

compound="C=CC(=O)Nc1cc(Nc2nccc(-c3cn(C)c4ccccc34)n2)c(OC)cc1N(C)CCN(C)CCOCCOCCOCCOCCOCCCCCc1cc(Cl)cc(NC(=O)NCc2ccc3c(c2)CN(C2CCC(=O)NC2=O)C3=O)c1 (stereo not drawn) [Compound I-125]" test_value="1000 to 5000 nM"
compound="COc1cc(N(C)CCN(C)C)c(NC(=O)/C=C/CN(C)CCOCCOCCOCCCCCc2cc(Cl)cc(NC(=O)NCc3ccc4c(c3)CN(C3CCC(=O)NC3=O)C4=O)c2)cc1Nc1nccc(-c2cn(C)c3ccccc23)n1 (stereo not drawn) [Compound I-145]" test_value="1000 to 5000 nM"
compound="C=CC(=O)Nc1cc(Nc2nccc(-c3cn(C)c4ccccc34)n2)c(OC)cc1N(C)CCN(C)CCOCCOCCOCCOCCOCCOCCOCCOCCOCCCCCc1cc(Cl)cc(NC(=O)NCc2ccc3c(c2)CN(C2CCC(=O)NC2=O)C3=O)c1 (stereo not drawn) [Compound I-160]" test_value="100 to 1000 nM"
compound="C=CC(=O)Nc1cc(Nc2nccc(-c3cn(C)c4ccccc34)n2)c(OC)cc1N(C)CCN(C)CCOCCOCCOCCCCCc1cc(Cl)cc(NC(=O)NCc2ccc3c(c2)CN(C2CCC(=O)NC2=O)C3=O)c1 (stereo not drawn) [Compound I-102]" test_value="1000 to 5000 nM"
compound="COc1cc(N2CCN(C(=O)COCCOCCOCCOCCOCCOCCOCCCCCc3cc(Cl)cc(NC(=O)NCc4ccc5c(c4)CN(C4CCC(=O)NC4=O)C5=O)c3)CC2)ccc1Nc1ncc(Cl)c(Nc2ccccc2P(C)(C)=O)n1 (stereo not drawn) [Compound I-120]" test_value="1000 to 5000 nM"
compound="COc1cc(N(C)CCN(C)C)c(NC(=O)/C=C/CN(C)CCOCCOCCOCCOCCOCCOCCOCCCCCc2cc(Cl)cc(NC(=O)NCc3ccc4c(c3)CN(C3CCC(=O)NC3=O)C4=O)c2)cc1Nc1nccc(-c2cn(C)c3ccccc23)n1 (stereo not drawn) [Compound I-146]" test_value="1000 to 5000 nM"
compound="COc1nn(C)cc1Nc1nc(N2CC(NC(=O)/C=C/CN(C)CCOCCOCCOCCOCCOCCOCCOCCOCCOCCCCCc3cc(Cl)cc(NC(=O)NCc4ccc5c(c4)CN(C4CCC(=O)NC4=O)C5=O)c3)[C@H](F)C2)nc2c1ncn2C (stereo partly drawn) [Compound I-131]" test_value="1000 to 5000 nM"
compound="C=CC(=O)N[C@@H]1CN(c2nc(Nc3cn(CCOCCOCCOCCCCCc4cc(Cl)cc(NC(=O)NCc5ccc6c(c5)CN(C5CCC(=O)NC5=O)C6=O)c4)nc3OC)c3ncn(C)c3n2)C[C@H]1F (stereo partly drawn) [Compound I-122]" test_value="100 to 1000 nM"
compound="COc1cc(N(C)CCN(C)C)c(NC(=O)/C=C/CN(C)CCOCCOCCOCCOCCOCCOCCOCCOCCOCCCCCc2cc(Cl)cc(NC(=O)NCc3ccc4c(c3)CN(C3CCC(=O)NC3=O)C4=O)c2)cc1Nc1nccc(-c2cn(C)c3ccccc23)n1 (stereo not drawn) [Compound I-132]" test_value="1000 to 5000 nM"

---

# System: HeLa KRas G12C cells
# test_protocol: Cellular growth inhibition assay (CTG), HeLa KRas G12C cells
# Format: cell-based
# experimental_context: Homo sapiens, CellTiter-Glo 2.0, day-5
value_type: GI50

compound="C=C(F)C(=O)N1CCN(c2nc(OC[C@@H]3CCCN3CCOCCOCCOCCOCCOCCOCCCCCCCCCCCCCCc3cc(Cl)cc(NC(=O)NCc4ccc5c(c4)CN(C4CCC(=O)NC4=O)C5=O)c3)nc3c2CCN(c2cccc4cccc(Cl)c24)C3)C[C@@H]1CC#N (some centres unmarked)" value_type=GI50 test_value="< 1 µM"
compound="C=C(F)C(=O)N1CCN(c2nc(OC[C@@H]3CCCN3CCOCCOCCOCCOCCOCCOCCOCCCCCc3cc(Cl)cc(NC(=O)NCc4ccc5c(c4)CN(C4CCC(=O)NC4=O)C5=O)c3)nc3c2CCN(c2cccc4cccc(Cl)c24)C3)C[C@@H]1CC#N (some centres unmarked)" value_type=GI50 test_value="1 to 3 µM"
compound="C=C(F)C(=O)N1CCN(c2nc(OC[C@@H]3CCCN3CCOCCOCCOCCOCCOCCCCCc3cc(Cl)cc(NC(=O)NCc4ccc5c(c4)CN(C4CCC(=O)NC4=O)C5=O)c3)nc3c2CCN(c2cccc4cccc(Cl)c24)C3)C[C@@H]1CC#N (some centres unmarked)" value_type=GI50 test_value="< 1 µM"
compound="C=C(F)C(=O)N1CCN(c2nc(OC[C@@H]3CCCN3CCCCCCCCc3cccc4c3CN(C3CCC(=O)NC3=O)C4=O)nc3c2CCN(c2cccc4cccc(Cl)c24)C3)C[C@@H]1CC#N (some centres unmarked)" value_type=GI50 test_value="3 to 10 µM"
compound="C=C(F)C(=O)N1CCN(c2nc(OC[C@@H]3CCCN3CCOCCOCCOCCOCCOCCOCCOCCOCCOCCCCCc3cc(Cl)cc(NC(=O)NCc4ccc5c(c4)CN(C4CCC(=O)NC4=O)C5=O)c3)nc3c2CCN(c2cccc4cccc(Cl)c24)C3)C[C@@H]1CC#N (some centres unmarked)" value_type=GI50 test_value="1 to 3 µM"
compound="C=CC(=O)N1CCN(c2nc(NCCCCCCCCNc3cccc4c3CN(C3CCC(=O)NC3=O)C4=O)nc3c(F)c(-c4cc(O)cc5ccccc45)c(Cl)cc23)CC1 (centres unmarked)" value_type=GI50 test_value="> 10 µM"
compound="C=C(F)C(=O)N1CCN(c2nc(OC[C@@H]3CCCN3CCOCCOCCOCCOCCOCCOCCOCCOCCOCCOCCOCCOCCc3cc(Cl)cc(NC(=O)NCc4ccc5c(c4)CN(C4CCC(=O)NC4=O)C5=O)c3)nc3c2CCN(c2cccc4cccc(Cl)c24)C3)C[C@@H]1CC#N (some centres unmarked)" value_type=GI50 test_value="> 10 µM"
compound="C=CC(=O)N1CCN(c2nc(NCCC(=O)N(C)CCOCCOCCOCCOCCOCCOCCc3cc(Cl)cc(NC(=O)NCc4ccc5c(c4)CN(C4CCC(=O)NC4=O)C5=O)c3)nc3c(F)c(-c4cc(O)cc5ccccc45)c(Cl)cc23)CC1 (centres unmarked)" value_type=GI50 test_value="> 10 µM"

---

Attribute: DC50
# assay_system: GSPT1 (Homo sapiens, UniProt P15170+Q96SW2)
# Construct: host or cells: HEK293 LgBiT cell line
# Sequence (P15170 whole entry): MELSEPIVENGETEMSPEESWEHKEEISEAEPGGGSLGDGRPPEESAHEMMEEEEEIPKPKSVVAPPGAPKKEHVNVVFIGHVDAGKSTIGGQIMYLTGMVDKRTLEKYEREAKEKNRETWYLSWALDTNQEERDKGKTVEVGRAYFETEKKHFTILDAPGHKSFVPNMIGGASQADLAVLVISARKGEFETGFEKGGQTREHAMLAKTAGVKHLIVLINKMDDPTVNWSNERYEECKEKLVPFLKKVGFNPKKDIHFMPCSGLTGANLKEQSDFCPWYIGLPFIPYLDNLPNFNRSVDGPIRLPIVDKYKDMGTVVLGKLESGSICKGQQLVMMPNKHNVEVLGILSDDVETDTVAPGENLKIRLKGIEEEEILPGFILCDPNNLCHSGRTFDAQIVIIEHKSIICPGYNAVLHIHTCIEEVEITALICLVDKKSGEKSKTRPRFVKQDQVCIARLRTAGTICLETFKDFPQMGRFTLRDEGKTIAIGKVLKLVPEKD
# Sequence (Q96SW2 whole entry): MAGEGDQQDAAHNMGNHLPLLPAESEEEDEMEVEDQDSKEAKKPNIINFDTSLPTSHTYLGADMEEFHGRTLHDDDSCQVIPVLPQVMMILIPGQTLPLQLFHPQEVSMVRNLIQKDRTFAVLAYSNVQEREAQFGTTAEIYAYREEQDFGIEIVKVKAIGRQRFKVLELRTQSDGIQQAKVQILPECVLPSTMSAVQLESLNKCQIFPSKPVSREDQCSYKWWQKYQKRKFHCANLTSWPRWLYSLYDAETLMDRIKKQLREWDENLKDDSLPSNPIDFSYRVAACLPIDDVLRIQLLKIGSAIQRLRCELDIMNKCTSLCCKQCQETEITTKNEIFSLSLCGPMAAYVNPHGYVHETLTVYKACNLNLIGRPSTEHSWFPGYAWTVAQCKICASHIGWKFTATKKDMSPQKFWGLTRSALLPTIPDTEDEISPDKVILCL
# Sequence (Q16531 whole entry partner): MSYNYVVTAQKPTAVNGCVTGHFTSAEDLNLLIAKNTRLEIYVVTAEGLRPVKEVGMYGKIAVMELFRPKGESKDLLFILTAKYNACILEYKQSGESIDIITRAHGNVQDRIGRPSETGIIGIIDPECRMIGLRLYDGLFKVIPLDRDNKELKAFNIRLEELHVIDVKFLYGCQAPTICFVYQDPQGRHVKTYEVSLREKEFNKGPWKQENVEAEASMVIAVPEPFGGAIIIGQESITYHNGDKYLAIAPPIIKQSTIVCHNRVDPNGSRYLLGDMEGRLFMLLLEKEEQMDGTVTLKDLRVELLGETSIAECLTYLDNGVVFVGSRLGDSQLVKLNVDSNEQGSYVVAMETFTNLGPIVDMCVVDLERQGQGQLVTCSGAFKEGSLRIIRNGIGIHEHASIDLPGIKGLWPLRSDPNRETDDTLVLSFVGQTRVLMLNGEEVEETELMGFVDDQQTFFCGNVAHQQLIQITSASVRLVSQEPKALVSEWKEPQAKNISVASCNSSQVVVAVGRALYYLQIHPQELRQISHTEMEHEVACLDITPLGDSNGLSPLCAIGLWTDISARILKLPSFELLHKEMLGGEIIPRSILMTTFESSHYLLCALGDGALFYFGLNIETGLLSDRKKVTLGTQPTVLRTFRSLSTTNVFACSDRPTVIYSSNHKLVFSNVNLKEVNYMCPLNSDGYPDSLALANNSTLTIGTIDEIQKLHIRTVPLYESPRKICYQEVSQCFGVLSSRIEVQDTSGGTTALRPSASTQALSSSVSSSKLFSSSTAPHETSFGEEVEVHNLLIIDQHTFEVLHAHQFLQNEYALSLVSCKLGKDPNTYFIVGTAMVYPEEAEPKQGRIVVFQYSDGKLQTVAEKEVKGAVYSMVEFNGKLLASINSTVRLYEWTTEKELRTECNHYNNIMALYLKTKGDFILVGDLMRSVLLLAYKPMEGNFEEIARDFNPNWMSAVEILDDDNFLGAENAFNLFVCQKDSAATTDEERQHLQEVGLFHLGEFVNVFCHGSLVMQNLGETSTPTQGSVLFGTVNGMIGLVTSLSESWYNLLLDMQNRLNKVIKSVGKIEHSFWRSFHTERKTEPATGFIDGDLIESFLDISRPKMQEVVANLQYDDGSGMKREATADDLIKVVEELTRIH
# test_protocol: GSPT1 HiBit degradation assay
# Assay type: cell-based
# experimental_context: Table 3; HEK293 LgBiT cells expressing GSPT1_HiBiT, luminescence after 6 hours
value_type: DC50

molecule="C=CC(=O)Nc1cc(Nc2nccc(-c3cn(C)c4ccccc34)n2)c(OC)cc1N(C)CCN(C)CCOCCOCCOCCOCCOCCOCCOCCOCCc1cc(Cl)cc(NC(=O)NCc2ccc3c(c2)CN(C2CCC(=O)NC2=O)C3=O)c1 (centres unmarked)" test_value="> 10 µM"
molecule="Nc1ncnc2c1c(-c1ccc(Oc3ccccc3)cc1)nn2[C@@H]1CCCN(C(=O)/C=C/COCCOCCOCCOCCOCCOCCOCCOCCOCCOc2cc(Cl)cc(NC(=O)NCc3ccc4c(c3)CN(C3CCC(=O)NC3=O)C4=O)c2)C1 (some centres unmarked)" test_value="0.25 to 5 µM"
molecule="CN(C/C=C/C(=O)N1CCC[C@@H](n2nc(-c3ccc(Oc4ccccc4)cc3)c3c(N)ncnc32)C1)CCOCCOCCOCCOCCOCCOCCCCCCCCc1cc(Cl)cc(NC(=O)NCc2ccc3c(c2)CN(C2CCC(=O)NC2=O)C3=O)c1 (some centres unmarked)" test_value="< 0.25 µM"
molecule="C=CC(=O)Nc1cc(Nc2nccc(-c3cn(C)c4ccccc34)n2)c(OC)cc1N(C)CCN(C)CCOCCOCCOCCOCCOCCOCCOCCOCCOCCOCCCCCCCCc1cc(Cl)cc(NC(=O)NCc2ccc3c(c2)CN(C2CCC(=O)NC2=O)C3=O)c1 (centres unmarked)" test_value="< 0.25 µM"
molecule="C=CC(=O)N1CCN(c2nc(NCCOCCOCCOCCOCCOCCOCCOCCOCCOCCOCCc3cc(Cl)cc(NC(=O)NCc4ccc5c(c4)CN(C4CCC(=O)NC4=O)C5=O)c3)nc3c(F)c(-c4cc(O)cc5ccccc45)c(Cl)cc23)CC1 (centres unmarked)" test_value="> 10 µM"
molecule="C=C(F)C(=O)N1CCN(c2nc(OC[C@@H]3CCCN3CCOCCOCCOCCOCCOCCOCCOCCOCCOCCOCCc3cc(Cl)cc(NC(=O)NCc4ccc5c(c4)CN(C4CCC(=O)NC4=O)C5=O)c3)nc3c2CCN(c2cccc4cccc(Cl)c24)C3)C[C@@H]1CC#N (some centres unmarked)" test_value="5 to 10 µM"
molecule="CCN(CCOCCOCCOCCOCCOCCOCCCCCCCCCCCCCCc1cc(Cl)cc(NC(=O)NCc2ccc3c(c2)CN(C2CCC(=O)NC2=O)C3=O)c1)CCOc1ccc(C(=O)c2c(-c3ccc(O)cc3)sc3cc(O)ccc23)cc1 (centres unmarked)" test_value="> 10 µM"
molecule="C=CC(=O)Nc1cc(Nc2nccc(-c3cn(C)c4ccccc34)n2)c(OC)cc1N(C)CCN(C)CCOCCOCCOCCOCCOCCOCCOCCOCCOCCOCCc1cc(Cl)cc(NC(=O)NCc2ccc3c(c2)CN(C2CCC(=O)NC2=O)C3=O)c1 (centres unmarked)" test_value="5 to 10 µM"
